- target or system: T1, MotA K3E, full length (bacteriophage T4, UniProt P22915 1-211, K3E)
- T1 sequence (looked up): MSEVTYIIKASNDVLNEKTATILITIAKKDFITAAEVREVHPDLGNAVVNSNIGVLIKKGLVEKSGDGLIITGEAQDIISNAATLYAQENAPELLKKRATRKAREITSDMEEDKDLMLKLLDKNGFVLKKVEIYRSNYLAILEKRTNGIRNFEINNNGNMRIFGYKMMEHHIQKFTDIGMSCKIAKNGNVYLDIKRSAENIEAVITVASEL
- protocol details: fluorescence polarisation
Where no end group is shown, it is not given here. The star is where a group is joined. FITC = O=C1OC2(c3ccc(O)cc3Oc3cc(O)ccc32)c2ccc(NC(=S)*)cc21
endpoint: Kd

// query Kd value for entry {FITC}-PSRSEVLRSFLDD (peptide, UniProt P00579 601-613, looked up) [fluorescein-tagged σ4-H5 peptide (σ^70 residues 601-613)]
> 300 µM
